Molecular target: SARS-CoV-2 full length Spike protein, wild type, expressed on CHO cells (SARS-CoV-2, UniProt P0DTC2 14-1273)
// label = T if median fluorescence intensity, fold over isotype control is not less than 60 fold over isotype, otherwise F

anti-SARS-CoV-2 antibody 896 (antibody, V domains shown) VH: EVQLVESGGGVVQPGGSLRLSCAASGFTFDDYAMHWVRQVPGKGLEWVSLISGDGGSTYYADSVKGRFTISRDNSKNSLYVQMNSLRTEDTALYYCVKDRGGSGWDLNHYYYGMDVWGQGTTVTVSS VL: DIQLTQSPSFLSASVGDRVTVTCRASQGISSYLAWYQQKPGKAPKLLIYAAYTLQSGVPSRFSGSGSETEFTLTISSLQPEDFATYYCQQVKSYPLTFGGGTKVEIKR : T

q: hey, is median fluorescence intensity, fold over isotype control for this one >= 60 fold over isotype? anti-SARS-CoV-2 antibody 1075 (antibody, V domains shown) VH: QVQLVQSGAEVKKPGASVKVSCKVSGYTLIELSMHWVRQAPGKGLEWMGGFDPEDGETIYAQKFQGRVTMTEDTSTDTAYMELSSLRSEDTAVYYCATEWAYYGSGSYLGYWGQGTLVTVSS VL: EIVMTQSPATLSVSPGERATLSCRASQSVSSNLAWFQQKPGQAPRLLIYGASTRVTVIPARFSGSGSGTEFTLTISSLQSEDFAVYYCQQYNNWPRTFGQGTKVEIKR
a: T

q: Threshold query (median fluorescence intensity, fold over isotype control >= 60 fold over isotype) on anti-SARS-CoV-2 antibody 936 (antibody, V domains shown) VH: EVQLVESGGGLVQPGRSLTLSCAGSGFTFDDYAMHWVRQAPGKGLEWVSGISWNSGSIGYADSVKGRFTISRDNAKNSLYLQMNSLRAEDTALYYCAKDVSYDSSGYYNNAFDIWGQGTMVTVSS VL: DIQLTQSPSFLSASVGDRVTITCRASQGISSYLAWYQQKPGKAPKLLIYAASTLQSGVPSRFSGSGSGTEFTLTISSLQPEDFATYYCQQLYSYPVTFGQGTRLEIKR
a: F
